Biological target: T1, human CD276 protein (human, UniProt Q5ZPR3 29-534)
T1 construct: whole, on cells; for SKOV3 and the other cancer lines the protein is the cells' own; also called B7-H3; B7H3
T1 sequence (looked up): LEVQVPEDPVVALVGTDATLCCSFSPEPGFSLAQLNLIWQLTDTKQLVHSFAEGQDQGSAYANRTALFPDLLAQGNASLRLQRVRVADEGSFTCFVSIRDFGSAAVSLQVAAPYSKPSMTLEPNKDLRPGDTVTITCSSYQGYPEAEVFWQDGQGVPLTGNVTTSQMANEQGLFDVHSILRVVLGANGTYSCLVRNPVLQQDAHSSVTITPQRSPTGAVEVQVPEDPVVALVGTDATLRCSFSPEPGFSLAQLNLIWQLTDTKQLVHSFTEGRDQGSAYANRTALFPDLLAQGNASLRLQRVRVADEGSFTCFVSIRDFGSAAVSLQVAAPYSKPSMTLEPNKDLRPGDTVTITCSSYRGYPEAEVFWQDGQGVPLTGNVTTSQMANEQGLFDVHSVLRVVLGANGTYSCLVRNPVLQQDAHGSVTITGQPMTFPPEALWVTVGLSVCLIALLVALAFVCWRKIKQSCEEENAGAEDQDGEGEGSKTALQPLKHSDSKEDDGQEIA
Experiment: FACS on SKOV3 cells
attributeMeasured: MFI (Max)
The reply should be a number, written without any unit.

Record excerpt, results attached:
>>> endpointvalue("25-C8-D7-C5 (human IgG1 chimeric antibody) (antibody, V domains shown, human IgG1 chimeric antibody of the mouse clone) VH: EVQLQESGGGLVKPGGSLKFSCAASGFTFSTYAMSWVRQTPEKRLEWVATISGGGIDTYYPDSVKGRFTISRDNAKNTLYLQMNSLRSEDTAMYYCARQGSKGWGAMDYWGQGTSVTVSS VL: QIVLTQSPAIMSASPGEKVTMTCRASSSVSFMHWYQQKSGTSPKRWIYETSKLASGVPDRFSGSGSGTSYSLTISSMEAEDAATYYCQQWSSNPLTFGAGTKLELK")
3480
>>> endpointvalue("6-H11-G5-D8 (human IgG1 chimeric antibody) (antibody, V domains shown, human IgG1 chimeric antibody of the mouse clone) VH: EVQLQESGPELVKPGTSVKLSCKASGYTFTSYDINWVRQRPEQGLEWIGWIFPGNGDTYYNEKFKGKATLTSDKSSSTAYMQLSRLTSEDSAVYFCARDLRLGTFDYWGQGTTLTVSS VL: QIVLTQSPEIMSASPGEKVTMTCSASSSVSYIHWYQQKSGTSPKRWIYDTSKLASGVPARFSGSGSGTSYSLTIRSMEAEDAATYYCQQGSSNPRTFGGGTKLELK")
200

Please examine the following record next.
Request: So what does the record say about MFI (Max) for 20-C5-D7-D3 (human IgG1 chimeric antibody) (antibody, V domains shown, human IgG1 chimeric antibody of the mouse clone) VH: EVQLVESGGDLVKPGGSLKLSCAASGFTFRSYGMSWVRQTPDKRLEWVATISGGGNYTYYPDSVKGRFTISRDNAKNTLYLQMSSLKSEDTAMYYCARHEGLPLDYWGQGTTLTVSS VL: DIQMTQSPASLSASVGETVTITCRASENIYSYLAWYQQKQGKSPQLLVYNAKTLAEGVPSRFSGSGSGTQFSLKINSLQPEDFGNFYCQHHYGTPTWTFGGGTKLEIK ?
Result: 2310
